# literature pull: Fibroblast growth factor receptor 4 (Homo sapiens, UniProt P22455) IC50
Quantity Kind: IC50

• C=CC(=O)N1CC=C(c2cc3c(Oc4ccc(NC(=O)Nc5ccccc5)c(Cl)c4)ccnc3cc2OC)CC1 = < 2 nM
• C=CC(=O)Nc1cc(N2CCN(S(C)(=O)=O)CC2)ccc1Nc1ncc2cc(-c3c(Cl)c(OC)cc(OC)c3Cl)c3nccn3c2n1 = < 50 nM
• C=CC(=O)Nc1cc(N2CCC(N3CCN(S(C)(=O)=O)CC3)CC2)ccc1Nc1ncc(C#N)c(Nc2ccccc2OC(C)C)n1 = 100 to 1000 nM
• C=CC(=O)N[C@H]1COC[C@H]1c1n[nH]c2c1CC[C@H](c1c(Cl)c(OC)cc(OC)c1Cl)C2 = > 100 nM
• C=CC(=O)N1CC=C(c2cc3c(Oc4ccc(NC(=O)NC5CC5)c(Cl)c4)ccnc3cc2OCc2ccccc2)CC1 = < 5 nM
• CC(C)Oc1cc(NC(=O)Nc2nccc(C=O)n2)ncc1C#N = 100 nM
• C=CC(=O)N1CCCC(c2cc(-c3cc4cc(C)cc(OC)c4s3)c3c(N)ncnn23)C1 (stereo not shown) = 5.4 nM

---

Dear all, I have gathered published pIC50 values for Fibroblast growth factor receptor 4 (Homo sapiens, UniProt P22455); the list follows.
pIC50: −log10 of the molar value.
Quantity Kind: pIC50

- COc1cc(OC)c2sc(-c3cc([C@@H]4CCN(C(=O)/C=C/CN(C)C)C4)n4ncnc(N)c34)cc2c1F: 8.04
- COCCNc1cc(NC(=O)N(CC2CCOC2)c2ccc(CO)c(C=O)n2)ncc1C#N (racemic): 7.18
- COc1cc(OC)c(F)c(CCc2cnc(NC(=O)N3CCCc4ccc(C=O)nc43)nc2)c1F: 9.00
- C=CC(=O)N[C@H]1COC[C@H]1Nc1ncc2cc(-c3c(Cl)c(OC)cc(OC)c3Cl)nc(NCCc3ccccc3)c2n1: 7.08
- C=CC(=O)N1CC[C@H](c2cc(-c3cc4cc(C)cc(OC)c4s3)c3c(N)ncnn23)C1: 9.70
- COCCNc1cc(NC(=O)N2CCCc3cc(CN(C)C(=O)[C@H]4CCCN4C(C)=O)c(C=O)nc32)ncc1C#N: 8.73
- CN1CCN(c2ccc(Nc3ncc4cc(C#N)c(=O)n(C5CCCC5)c4n3)cc2)CC1: 5.45

---

Several publications report IC50 on Fibroblast growth factor receptor 4 (Homo sapiens, UniProt P22455); those values are gathered here.
Quantity Kind: IC50

• C=CC(=O)Nc1cc(N2CCC(N(C)C)CC2)c(F)cc1Nc1ncc(C#N)c(Nc2ccccc2OC(C)C)n1 = 10 to 50 nM
• COCCOc1cc(NC(=O)N2c3nc(C=O)c(CN4CCN(C)CC4=O)cc3C3CC2C3)ncc1C#N = 2.5 nM
• C=CC(=O)N[C@@H]1CCC[C@H]1Nc1ncc2cc(-c3c(Cl)c(OC)cc(OC)c3Cl)ccc2n1 = > 1000 nM
• C=CC(=O)Nc1cc(OC2CCCC2)ccc1Nc1ncc2cc(-c3c(Cl)c(OC)cc(OC)c3Cl)c3nccn3c2n1 = 50 to 500 nM

---

Record: compiled IC50 on Fibroblast growth factor receptor 4 (Homo sapiens, UniProt P22455) from multiple reports.
Quantity Kind: IC50

- C=CC(=O)Nc1cc(N2CCN(CC)CC2)ccc1Nc1ncc(C#N)c(Nc2ccc(C3CC3)cc2OC(C)C)n1: 10 to 50 nM
- Nc1ncnc2c1c(-c1cccc(OC[C@@H]3CCCO3)c1F)cn2C1CC2(CNC(=O)O2)C1 (stereo partly drawn): > 10000 nM
- C=CC(=O)N[C@H]1COC[C@H]1Nc1ncc2cc(-c3c(Cl)c(OC)cc(OC)c3Cl)cnc2n1: 10 to 100 nM
- C=CC(=O)N1CC=C(c2cc3c(Nc4ccc(NC(=O)NC5CC5)c(Cl)c4)ccnc3cc2OC)CC1: < 5 nM
- C=CC(=O)Nc1ccccc1Nc1cc2c(cn1)cc(-c1cc(OC)cc(OC)c1)c(=O)n2C: 10 to 100 nM
- CN1CCN(Cc2ccc(N(C)C(=O)Nc3cc(OCC4CC4)c(C#N)cn3)nc2C=O)C(=O)C1: 3.4 nM
- CO[C@H]1CCN(Cc2cc3c(nc2C=O)N(C(=O)Nc2cc(NC4COC4)c(C#N)cn2)CCC3)C1=O: 1.32 nM
- C=CC(=O)Nc1cc(F)cc(F)c1Nc1ncc2cc(-c3c(Cl)c(OC)cc(OC)c3Cl)ccc2n1: 100 to 1000 nM
- C=CC(=O)N[C@H]1COC[C@H]1Nc1ncc2cc(-c3c(Cl)c(OC)cc(OC)c3Cl)nc(N(C)C)c2n1: > 10000 nM
- C=CC(=O)N[C@@H]1COC[C@@H]1c1n[nH]c2c1CC[C@H](c1c(Cl)c(OC)cc(OC)c1Cl)C2: > 100 nM
- C=CC(=O)Nc1cnn(C[C@@H]2CCCO2)c1-c1cc2c(cn1)CN(c1c(F)c(OC)cc(OC)c1F)C(=O)C21CC1: < 10 nM
- C=CC(=O)N[C@H]1CCOC[C@H]1Nc1cc2c(cn1)cc(-c1c(Cl)c(OC)cc(OC)c1Cl)c(=O)n2C: < 10 nM
- C=CC(=O)N[C@H]1CN(C(C)=O)C[C@H]1Nc1ncc2cc(-c3c(Cl)c(OC)cc(OC)c3Cl)ccc2n1: < 10 nM
- C=CC(=O)N[C@H]1COC[C@H]1Nc1ncc2cc(-c3c(Cl)c(OC)cc(OC)c3Cl)nc(NCC)c2n1: 8.4 nM
- C=CC(=O)Nc1cc(N2CCC(N(C)CCCOC)CC2)ccc1Nc1ncc(C#N)c(Nc2ccccc2OC(C)C)n1: ≤ 10 nM
